target: human EGFRvIII protein on the surface of U87MG-hEGFRvIII cells (human, UniProt P00533 25-1210); assay: cell-based or functional assay
QUANTITY_NAME: IC50, cell killing of U87MG-hEGFRvIII cells (CellTiter-Glo) (nM)

1. Murine anti-75G7-MMAF (antibody, V domains shown) VH: EVQLQQSGPELVKPGASVKIPCKASGYTFTDYNMDWVKQSHGKSLEWIGDINPNNGDTIYNQKFKGKATLTVDKSSSTAYMELRSLTSEDTAVYYCARGDYDGYYPVYYAMDYWGQGTSVTVSS VL: ENVLTQSPAIMSASPGEKVTMTCRASSSVSSSYLHWYQQKSGASPKLWIFSTSNLAAGVPARFSGSGSGTSYSLTVSSVEAEDAATYYCQQYSGYPLTFGAGTKLELK    0.27
2. Murine anti-59G3-MMAF (antibody, V domains shown) VH: DVQLQESGPGLVKPSQSLSLTCSVTGYSITSGYYWHWIRQFPENKLEWMGYISYDGSNIYNPSLKNRISITRDTSKNQFFLKLNSVTTEDTATYYCAINSDYALDYWGQGTSVTVSS VL: QIVLTQSPAIMSASPGEKVTMTCSASSSVSYMYWYQQKPGSSPRLLIYDTSNLASGVPVRFSGSGSGTSYSLTISRMEAEDAATYYCQQWSSYSLTFGAGTKLELK    0.06
3. Murine anti-64F1-MMAF (antibody, V domains shown) VH: QVQLQQSGAELARPGASVKMSCKASGYTFSSYTMHWAKQRPGQGLEWIGYINPSSGYTKYNQKFKDKATLTADKSSSTAYMQLSSLTSEDSIVYYCARGGGRGFAYWGQGTLVTVSA VL: QIVLTQSPAIMSASPGERVTMTCSASSSVSYMYWYQQKPGSSPRLLIYDTSNLASGVPVRFSGSGSGTSYSLTISRVEAEDAATYYCQQWSSYSLTFGAGTKLELK    0.01
4. Murine anti-43H6-MMAF (antibody, V domains shown) VH: INAEYAGGPGLVKPSQSLSLTCTVTDYSITSDYAWNWIRQFPGNKLEWMGYISYSGNTNYNPSLKSRISITRDTSKNQFFLQLNSVTTEDTATYYCARLGRGFAYWGQGTLVTVSA VL: DILMTQSPSSMSVSLGDTVSITCHASQDINSNIGWLQQKPGTSFKGLIYHGRNLEDGVPSRFSGSGSGEDYSLTISSLESEDFADYYCVQYAHFPPTFGAGTKLELK    0.01
5. Murine anti-46C4-MMAF (antibody, V domains shown) VH: EVHLQQSVAELVRPGASVKLSCTASGFNIKNTYMHWVKQRPEQGLEWIGRIDPANGNTKYAPKFQGKATITADTSSNTAYLQLSSLTSEDTAIYYCASDFDYWGQGTTLTVSS VL: DVLMTQTPLSLPVSLGDQVSISCRSSQSIVNSNGNTHLEWYLQKPGQSPKVLIYKVSKRFSGVPDRFSGSGSGTDFTLKISRVEAEDLGVYYCFQGSHVPYTFGGGTKLEIK    0.15
6. Murine anti-56F10-MMAF (antibody, V domains shown) VH: EVQLQQSGAELVKPGASVKLSCTASGFNIKDFYMHWVKQRTEQGLEWIGRIDPEDGETKYAPKFQGKATITADTSSNTAYLQLSSLTSEDTAVYYCGCRTGGFAYWGQGTLVTVSA VL: QIVLTQSPAIMSASPGEKVTMTCSASSSVSYLYWYQQKPGSSPSLLIYDTSNLASGVPVRFSGSGSGTSYSLTISRMEAEDAATYYCQQWSRNPWTFGGGTKLEIK    0.15
7. Murine anti-7E5-MMAF (antibody, V domains shown) VH: EIQLQQSGPELVKPGASVKVSCKASGYSFTDYNMYWVKQSHGKSLEWIGYVDPSNGGTNYNQKFKGKATLTVDKSSSTAFMHLNSLTSEDSAVYYCARGFFDYWGQGTTLTVSS VL: DIVMTQSPSSLTVTAGEKVTMSCKSSQSLLNSGNQKNYLTWYQQKPGQPPKLLIYWASNRESGVPDRFTGSGSGKDFTLTISSVQAEDLAVYYCQNDYRYPVTFGAGTKLELK    0.02
8. Murine anti-49G12-MMAF (antibody, V domains shown) VH: EVQLLQSGAELVKPGASVKLSCTASGFNIKDYYMHWVKQRTEQGLEWIGRIDPEDGETKYAPKFQGKATMTADTSSNTAYLQLSSLTSEDTAVYYCASSAYYGRNYWGQGTTLTVSS VL: QIVLTQSPAIMSASPGEKVTLTCSASSSLSSSYLYWYQQKPGSSPKLWIYSTSNLASGVPARFSGSGSGTSYSLTISSMEAEDAASYFCHQWSSYPYTFGGGTKLEIK    0.02
